- System: HeLa cells
- Procedure details: Label-free Epic RWG biosensor DMR assay in HeLa cells cultured in regular serum medium
- Type: cell-based
- Condition summary: Homo sapiens; synchronized HeLa cells, 25,000 cells per well; dependent on the time points after stimulation (6 min and 50 min); read-out: EC50 of dose-dependent P-DMR response
Readout name: EC50

CN(C)c1nc2c(Br)c(Br)c(Br)c(Br)c2[nH]1 : 5 to 22 µM
